Quick reference for Papp at 30 min, 0.05 mM among some compounds
- Protocol Notes: PAMPA permeability assay
- Format: in vitro ADME
- Experimental Context: pH 7.4

Field: example entries. Status: answers known.
INPUT: Which Papp at 30 min, 0.05 mM reading was recorded for the compound Nc1cccc(C(OCCN2CCCCC2)c2cc3nccc(C(=O)O)c3s2)c1 (stereo not drawn) [N70] ?
OUTPUT: 10 to 100 ×10⁻⁶ cm/s

INPUT: Can you check CC(C)OC(=O)c1ccnc2cc(C(OCCN3CCCCC3)c3cccc(NC(=O)/C=C/CN(C)C)c3)sc12 (stereo not drawn) [N73] next?
OUTPUT: 10 to 100 ×10⁻⁶ cm/s

Consider now this further compound.
INPUT: Request the reported Papp at 30 min, 0.05 mM associated with CC(C)OC(=O)c1ccnc2cc(C(OCCN3CCCCC3)c3cccc(N)c3)sc12 (stereo not drawn) [SI-5]
OUTPUT: > 100 ×10⁻⁶ cm/s
